Consider the following compounds; for each one, report its growth inhibition.
Assay: NCI Yeast Anticancer Drug Screen. Data for the mgt1 strain (AID 153)
Conditions: S. cerevisiae mgt1 mutant growth inhibition; at 3.7 µM; hits give high values
Protocol: Growth inhibition of yeast strains with defined genetic alterations is measured as a screen for potential anti-cancer activity. Selected strains with alterations in DNA damage repair or cell cycle control were exposed to compounds and growth inhibition was measured relative to vehicle treated controls. The strain used in this assay is mgt1
Compounds without any hit were thinned out: in the full panel of roughly 79,000, 15% have a hit.
Answers are plain numbers, in %.

Reference set (8 entries):
O=C(NNC(=O)OCC(Cl)(Cl)Cl)OCC(Cl)(Cl)Cl; -4
OC(c1ccc(Br)cc1)C(Cl)(Cl)Cl (stereo not given); -1
O=C(O)C1C2C=CC(C2)C1c1ccccc1 (stereo not given); -1
COC1CC(CC2CCC(C)C(C(C)C(=O)O)O2)OC2(OC(C)(C3CCC(C)(C4OC(C5OC(O)(CO)C(C)CC5C)CC4C)O3)CC2C)C1C (stereo not given); -5
CC(C)(C)c1cc([N+](=O)[O-])cc([N+](=O)[O-])c1O; -34
Oc1cccnc1[Se]; -3
C[N+](CCCl)(CCCl)Cc1cccc2cccc([N+](=O)[O-])c12; 6
COC(=O)C1=C(C(=O)OC)SC2(S1)C(C(=O)OC)=C(C(=O)OC)Sc1c2ssc1=O; 51

For the 2 compounds below, give their growth inhibition values.
1. Cc1c2ccccc2cc2ccccc12
2. O=P(CCCCP(=O)(c1ccccc1)c1ccccc1)(c1ccccc1)c1ccccc1.[Cl][Sn]([Cl])([c]1ccccc1)[c]1ccccc1

Response:
[19, 24]

====

Assay: NCI Yeast Anticancer Drug Screen. Data for the bub3 strain (AID 167)
Settings: S. cerevisiae bub3 mutant strain, at 50.0 µM, hits give high values
About 79,000 compounds went through this panel and 15% of them were active in at least one assay; those are over-represented in the sample as a whole.
MEASURED_METRIC: growth inhibition (%)
One number for each entry, in %.

These solved cases illustrate the format of a correct answer.
CC[N-]c1nnnn1CC.[Au+].c1ccc([PH+](c2ccccc2)c2ccccc2)cc1; 97.8
CC(Cl)CNC(C)C (stereo not given); -7.95
O=[N+]([O-])c1csc([N+](=O)[O-])c1; 99.2

Go through the items and report each one's growth inhibition.
1. CCC[CH2][Sn]([N]=C=S)([N]=C=S)[N]=C=S.O=P(c1ccccc1)(c1ccccc1)c1ccccc1.O=P(c1ccccc1)(c1ccccc1)c1ccccc1
2. S=C1NC2(CCCCC2)NC12CCCCC2
3. ClCCN(CCCl)CCN1c2ccccc2Sc2ccc(Cl)cc21
4. CC(Cc1ccccc1)N(C)Cc1ccc(-c2ccc(Cl)cc2)o1 (stereo not given)
5. ClCCN(CCCl)c1ccc(C2N(Cc3ccc(Cl)cc3)CCCN2Cc2ccc(Cl)cc2)cc1

Response:
[46.2, 14.5, 97.1, 99.2, 98.8]

Provide each entry's growth inhibition from the list below.
1. O=[N+]([O-])c1cc2c([N+](=O)[O-])cccc2o1
2. c1cc[c]([Sn]([c]2ccccc2)([c]2ccccc2)[CH]2CCCCC2)cc1

Response:
1: 99.5; 2: 98

====

Assay: NCI Yeast Anticancer Drug Screen. Data for the rad50 strain (AID 155);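 also: 0% = growth of vehicle-only cultures of the same strain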
Settings: S. cerevisiae rad50 strain growth inhibition; at 100.0 µM; hits give high values
About 79,000 compounds went through this panel and 15% of them were active in at least one assay; those are over-represented in the sample as a whole.
Record rule met whenever growth inhibition is at 90% or higher; record rule not met when lower.

See these solved cases before continuing.
Cc1c(N)nc([C@H](CC(N)=O)NC[C@H](N)C(N)=O)nc1C(=O)N[C@H](C(=O)N[C@H](C)[C@@H](O)[C@H](C)C(=O)N[C@H](C(=O)NCCc1nc(-c2nc(C(=O)NCCC[S+](C)C)cs2)cs1)[C@@H](C)O)C(OC1OC(CO)C(O)C(O)C1OC1OC(CO)C(O)C(OC(N)=O)C1O)c1cnc[nH]1 (stereo partly drawn); rule met
O=C(O)C1C2C=CC(C2)C1c1ccccc1 (stereo not drawn); rule not met
[O-][n+]1c2cccc(O)c2[n+]([O-])c2cccc(O)c21; rule met
CC1=C2C(=C[C@@](C)(CO)[C@@H]2O)C(=O)[C@](C)(O)C12CC2; rule not met
CC1=C(N2CC2)C(=O)c2ccccc2C1=O; rule met

Prompt: Is it the case that `O=[N+]([O-])c1ccc(-n2nc3ccc4c(no[n+]4[O-])c3[n+]2[O-])c([N+](=O)[O-])c1` has growth inhibition reaching or exceeding 90%?
Response: rule not met

Prompt: Is reported growth inhibition greater than or equal to 90% here: `CSc1ccccc1[As](C)C`
Response: rule met

====

Test: NCI Yeast Anticancer Drug Screen. Data for the rad50EPP+ strain (AID 151);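 also: 0% = growth of vehicle-treated control cultures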
Conditions: S. cerevisiae rad50 mutant strain, at 33.0 µM, hits give high values
About 79,000 compounds went through this panel and 15% of them were active in at least one assay; those are over-represented in the sample as a whole.
Please note: yes (1) applies when growth inhibition is 60% or greater, and no (0) applies otherwise.

Reference set, count: 10
O=C1OC2C(O1)C1(Cl)C(Cl)=C(Cl)C2(Cl)C1(Cl)Cl (configuration not stated); no (0)
Oc1cccc2cccnc12; yes (1)
COc1ccc(/C=C(/C)[N+](=O)[O-])cc1; yes (1)
Oc1cccnc1[Se]; yes (1)
CC[C@@]1(O)C(=O)OCc2c1cc1n(c2=O)Cc2cc3c(NC(=O)CN)cccc3nc2-1; no (0)
C[C@]12CCC3[C@@H](CC[C@@H]4c5nonc5CC[C@]34C)C1CCC2=O (some centres not stated); no (0)
C[N+](C)(C)CC1CCCC(C[N+](C)(C)C)C1=O (configuration not stated); yes (1)
COC(=O)C1C2c3ccccc3C(c3ccccc32)C1C(=O)OC (configuration not stated); no (0)
Oc1cccc2nc3ccccc3nc12; yes (1)
C=CC[N+]12CN3CN(CN(C3)C1)C2; no (0)

As a next step, examine the molecule that follows.
Prompt: I'd appreciate it if you could say whether `Cc1nc2ccccc2cc1C[N+]12CN3CN(CN(C3)C1)C2` has growth inhibition at least equal to 60%.
Response: no (0)

====

Test: NCI Yeast Anticancer Drug Screen. Data for the wt1 strain (AID 149);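 also: 0% = growth of vehicle-treated wt1 cultures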
Conditions: S. cerevisiae wt1 strain (SPY 50644) growth inhibition; at 100.0 µM
Compounds without any hit were thinned out: in the full panel of roughly 79,000, 15% have a hit. Active and inactive are the calls of the source. No stated cut-off is given here; in the data, active means growth inhibition above about 70%; inactive means the rest.
Valid outcomes are listed here; reply with one: 1 for active, -1 for inactive

Some solved cases for reference:
CC1CN=C(Nc2ccccc2)S1 (stereo not given); -1
O=[N+]([O-])c1cc([As](Br)c2ccc(O)c([N+](=O)[O-])c2)ccc1O; 1
Cn1cc(NC(=O)c2cc(NC(=O)CN=C(N)N)cn2C)cc1C(=O)NCCC(=N)N; 1
Nc1ccccc1C(=O)OCCc1ccccc1; 1

Continue with the compound presented below.
Prompt: # fetch the recorded call for CCOC(=O)C1([Se]c2ccccc2)CCCC1=O (stereo not given) here
Response: 1

====

Test: NCI Yeast Anticancer Drug Screen. Data for the mlh1 rad18 strain (AID 175)
Details: S. cerevisiae mlh1 rad18 strain growth inhibition; at 50.0 µM (retest, dose inferred, filed as 5.0); hits give high values
This is part of a sample that, as a whole, favours compounds with a hit. Of some 79,000 tested, about 15% had one in any assay.
MEASURED_METRIC: growth inhibition (%)
Numbers only, in %.

CCC(C)(C)c1ccc(OP(=S)(S)Oc2ccc(C(C)(C)CC)cc2)cc1; 95

Give growth inhibition for all molecules that follow.
1. [Au+].c1c[n-]cn1.c1ccc([PH+](c2ccccc2)c2ccccc2)cc1
2. CCOC(=O)C(NC(=O)C(Cc1ccc(N(CCCl)CCCl)cc1)NC(C)=O)C(C)C (stereo not given)
3. Cc1cc[n+](C2=C(Nc3cccc(C(F)(F)F)c3)C(=O)c3ccccc3C2=O)cc1

Response:
1: 98; 2: -1; 3: 3

====

Assay: NCI Yeast Anticancer Drug Screen. Data for the mec2-1 strain (AID 157)
Conditions: S. cerevisiae mec2-1 strain, at 50.0 µM (retest, dose inferred, filed as 5.0)
This is part of a sample that, as a whole, favours compounds with a hit. Of some 79,000 tested, about 15% had one in any assay. Activity calls are given as the source filed them. No stated cut-off is given here; in the data, active means growth inhibition above about 70%; inactive means the rest.
Your response should consist of one outcome taken from y (active), n (inactive)

Worked set:
[C-]#[O+].[C-]#[O+].[Ir].[O-]c1ccc2ccccc2c1N=Nc1ccccc1; n
[I][Hg][I].c1ccc(N=P(c2ccccc2)(c2ccccc2)c2ccccc2)cc1; y

Please find the next compound below.
Prompt: Kindly provide the recorded test outcome for the following compound: COC(=O)C(F)C(Br)C(=O)OC (configuration not stated)
Response: y

====

Assay: NCI Yeast Anticancer Drug Screen. Data for the mec2-1 strain (AID 157)
Conditions: S. cerevisiae mec2-1 strain, at 50.0 µM (retest, dose inferred, filed as 5.0), hits give high values
About 79,000 compounds went through this panel and 15% of them were active in at least one assay; those are over-represented in the sample as a whole. Active and inactive are the calls of the source. No stated cut-off is given here; in the data, active means growth inhibition above about 70%; inactive means the rest.
I'd be grateful if you could share measured growth inhibition for these entries.

Give growth inhibition for each of the items listed below.
1. C1CC[N-]CC1.C1CC[N-]CC1.N#CO.[Ag]
2. CC1=CCC2(C)C3CCC4(C)C(O)CCC4C3CCC2(C)C1 (stereo unspecified)

Response:
["99% (active)", "95% (active)"]

# batch: return growth inhibition for each of the 7 compounds below
1. c1ccc(NC2=NCCN2)nc1
2. Oc1ccc(Br)cc1C1N(Cc2ccc(N(CCCl)CCCl)cc2Cl)CCCN1Cc1ccc(N(CCCl)CCCl)cc1Cl
3. CO[C@H](/C(C)=C/C=C/C(C)=C/c1coc(C)n1)[C@H](C)[C@H]1C[C@@H](O)[C@@]2(C)O[C@H]2/C=C/[C@@H](C)[C@@H]2C[C@@H](CC(=O)O2)C[C@H]2O[C@@H]2C(=O)O1
4. Cc1ccc([C@H]2N[C@@H]2c2ccccn2)cc1
5. CC(C)C1=CC23CCC4C(C)(C(=O)O)CCCC4(C)C2CC1OO3 (stereo unspecified)
6. N#CC(=C=N)N=C(F)C(C#N)=C(C#N)C#N
7. CCOP(=O)(OCC)Oc1cc(C)c(SC#N)c(C)c1

Response:
1. 99% (active)
2. 99% (active)
3. 93% (active)
4. 1% (inactive)
5. 94% (active)
6. 88% (active)
7. 3% (inactive)

Quick batch: growth inhibition for everything below.
1. S=C(SSC(=S)N1CCCCC1)N1CCCCC1
2. CCCCCCCCCCCCCCCc1cccc(O)c1O

Response:
99% (active)
3% (inactive)

Okay, here is my list. What is growth inhibition for each of these?
1. CC12CCC(O)CC1CCC1C2CCC2(C)C1CC1CC(=O)OC12 (stereo unspecified)
2. COc1ccc(OC)c(C=O)c1

Response:
1. 98% (active)
2. 7% (inactive)
